FYI, the data here is from ChEMBL document CHEMBL3045105.

Test system: HepG2
protocol-summary: Hypoglycemic activity in Homo sapiens (human) HepG2 cells assessed as glucose consumption at 1 mg/l after 24 hr by glucose enzymatic assay (reference value: 1.972 +/-0.071 mmol/l)
Assay type: functional
Assign Activity to each entry below.
Express your answer in mmol/L, writing the number without its unit.

// query Return Activity (reported value) for this molecule: CC(C)(C)[Si](C)(C)Oc1cccc2c1C(=O)c1c(O[Si](C)(C)C(C)(C)C)cc(C(=O)NC3CCCC3)cc1C2=O
// result 2.369

// query Return Activity (reported value) for this molecule: CC(C)(C)[Si](C)(C)Oc1cccc2c1C(=O)c1c(O[Si](C)(C)C(C)(C)C)cc(C(=O)OCc3ccc([N+](=O)[O-])cc3)cc1C2=O
// result 2.576

// query Return Activity (reported value) for this molecule: O=C1c2cccc(O)c2C(=O)c2c(O)cc(C(=O)N3CCCC3)cc21
// result 2.379

// query Return Activity (reported value) for this molecule: CC(=O)Oc1cccc2c1C(=O)c1c(OC(C)=O)cc(C(=O)OCc3ccc([N+](=O)[O-])cc3)cc1C2=O
// result 2.198

// query Return Activity (reported value) for this molecule: CN(C)C(=O)c1cc(O)c2c(c1)C(=O)c1cccc(O)c1C2=O
// result 2.444

// query Return Activity (reported value) for this molecule: CC(=O)Oc1cccc2c1C(=O)c1c(OC(C)=O)cc(C(=O)NC3CCCC3)cc1C2=O
// result 2.151

// query Return Activity (reported value) for this molecule: CC(=O)Oc1cccc2c1C(=O)c1c(OC(C)=O)cc(C(=O)N3CCCC3)cc1C2=O
// result 2.476
